Assay: Tmax in CD1 mouse at 100 mg/kg, po
Format: ADME, organism-based
Set-up: dose 100 mg/kg, route oral
Conditions: in vivo
Measurement type: Tmax (min)
Give a bare numeral; the unit min is implied.

GET /values?readout=Tmax&item= "CCOC(=O)c1ccc(Oc2ccc3c(c2)COB3O)nc1"
15

###

Experiment: Tmax in CD1 mouse at 100 mg/kg, sc
Assay type: ADME, organism-based
Set-up: dose 100 mg/kg, route subcutaneous
Settings: in vivo
Measurement type: Tmax (min)
Just the number in min, nothing appended.

# get_value(readout='Tmax', item= "CCOC(=O)c1ccc(Oc2ccc3c(c2)COB3O)nc1" )
30
